Kindly supply the reported protein stability index values for the records listed here.
B1: NR2F2 (parent)
chain: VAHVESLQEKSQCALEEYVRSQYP

Variants of: B1
experimental.protocol: protein stability index of a GFP-peptide fusion (GPS, HEK-293T) (PSI 1-6); higher = more stable;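 further: lentivirally expressed fusions sorted by FACS into six bins by GFP to DsRed ratio, PSI derived from sequencing read proportions per bin multiplied by bin number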
condition.set: c terminus: a fixed tail appended

// below: answered variants
variant.notation | protein stability index
E5W | 2.14
Q22A | 3.63
V1P | 4.13

Exercise: // lookup protein stability index for Y23A
Solution: 4.1
